TARGET DESC: N2 influenza neuraminidase (Influenza A virus (A/Aichi/2/1968(H3N2)))
Sequence (Q75VQ4 whole entry, looked up): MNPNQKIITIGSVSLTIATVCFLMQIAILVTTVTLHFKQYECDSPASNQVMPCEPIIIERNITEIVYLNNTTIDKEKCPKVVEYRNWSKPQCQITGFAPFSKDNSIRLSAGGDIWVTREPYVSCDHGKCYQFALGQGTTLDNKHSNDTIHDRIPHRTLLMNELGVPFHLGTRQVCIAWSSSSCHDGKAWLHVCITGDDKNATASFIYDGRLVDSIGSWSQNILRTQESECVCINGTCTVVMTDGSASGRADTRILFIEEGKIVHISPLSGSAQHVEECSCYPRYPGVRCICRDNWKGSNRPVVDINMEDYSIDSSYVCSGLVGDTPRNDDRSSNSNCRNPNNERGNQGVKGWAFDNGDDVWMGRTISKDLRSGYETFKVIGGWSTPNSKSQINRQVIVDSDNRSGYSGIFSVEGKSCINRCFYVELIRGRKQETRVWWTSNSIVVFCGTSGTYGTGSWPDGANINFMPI
EXPERIMENTAL CONTEXT: read-out: NA1 (μg/ml), virion X31, MUN substrate, pH 6.5, 15 minutes at 37° C.
ASSAY METRIC: IC50 (nM)
Number in nM, nothing else.

For reference, reported IC50 for CC(=O)N[C@H]1[C@H]([C@H](O)[C@H](O)CO)OC(C(=O)O)=C[C@@H]1NC(=N)NN [Example 1] stands at 3740

// sample CC(=O)N[C@H]1[C@H]([C@H](O)[C@H](O)CO)OC(C(=O)O)=C[C@@H]1NC(=N)NO [Example 2] , its IC50 was 1720
